Molecular target: T1, β-catenin (UniProt P35222 134-665, limits assumed, biotinylated in the SPR and plate assays)
T1 sequence (looked up): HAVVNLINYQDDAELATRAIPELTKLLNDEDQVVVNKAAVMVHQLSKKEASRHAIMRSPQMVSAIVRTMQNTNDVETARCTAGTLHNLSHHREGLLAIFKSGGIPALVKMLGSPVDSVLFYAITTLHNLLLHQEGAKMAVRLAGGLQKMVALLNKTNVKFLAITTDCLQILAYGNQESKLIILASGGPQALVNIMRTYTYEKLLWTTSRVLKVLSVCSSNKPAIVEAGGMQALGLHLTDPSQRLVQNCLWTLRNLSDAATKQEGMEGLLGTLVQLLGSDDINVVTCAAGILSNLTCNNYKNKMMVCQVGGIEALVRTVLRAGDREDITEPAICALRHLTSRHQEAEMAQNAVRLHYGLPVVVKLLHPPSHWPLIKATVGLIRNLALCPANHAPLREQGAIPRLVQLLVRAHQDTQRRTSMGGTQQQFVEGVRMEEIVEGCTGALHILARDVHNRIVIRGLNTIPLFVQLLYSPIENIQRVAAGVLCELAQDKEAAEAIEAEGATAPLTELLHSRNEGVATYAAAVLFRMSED
Test: cell-based or functional assay
Bridges are numbered along the chain shown (N, C = ends). Where no end group is shown, it is not given here. [ ]: non-standard residue; d: D form. NMeW = CN[C@@H](Cc1c[nH]c2ccccc12)C(=O)O; Chg = N[C@H](C(=O)O)C1CCCCC1; αMeV = CC(C)[C@](C)(N)C(=O)O; αMeS = C[C@](N)(CO)C(=O)O; NMeA = CN[C@@H](C)C(=O)O; Sar = CNCC(=O)O
Recorded Wnt Reporter EC50 by entry

Example entries and their recorded answers appear below.
Binder	Wnt Reporter EC50
WPQSILDKHGQDVW (not fully specified; Lauroyl-NH-WPQSILDK*H-Chg-QD*VW-NH2) [SEQ ID NO: 463]	≤ 7.5 µM
KWILISAWE (HELM PEPTIDE1{[ac].K.W.I.L.I.S.A.W.E}$PEPTIDE1,PEPTIDE1,2:R3-10:R3$$$V2.0; SMILES CC[C@H](C)[C@@H]1NC(=O)[C@H](CC(C)C)NC(=O)[C@H]([C@@H](C)CC)NC(=O)[C@H](Cc2c[nH]c3ccccc23)NC(=O)[C@@H](NC(C)=O)CCCCNC(=O)CC[C@@H](C(=O)O)NC(=O)[C@H](Cc2c[nH]c3ccccc23)NC(=O)[C@H](C)NC(=O)[C@H](CO)NC1=O) [SEQ ID NO: 188]	≤ 7.5 µM

Data request: Answer with reported Wnt Reporter EC50 of Ac-PQKILDEH[Chg]QRVMK-NH2 (lactam 3-7) [SEQ ID NO: 488]
Data returned: ≤ 7.5 µM

Data request: Name the recorded Wnt Reporter EC50 of the binder listed here: H-W[NMeW]E[αMeS]ILDEH[αMeV]QRVWG-NH2 [SEQ ID NO: 38]
Data returned: > 30 µM

Data request: Give reported Wnt Reporter EC50 value for Ac-MWILISFW[Sar]-OH [SEQ ID NO: 221]
Data returned: ≤ 7.5 µM

Data request: Provide one value: measured Wnt Reporter EC50 of H-MWFLIAAWG-OH [SEQ ID NO: 212]
Data returned: ≤ 7.5 µM

Data request: Given the binder W[NMeA]QKILDEH[Chg]EAVWK (lactam 11-15, 4-8 (inferred); not fully specified (N-terminus); printed as H23C11C(O)-NH-W-NMeA-QK*ILDE*H-Chg-E*AVWK*) [SEQ ID NO: 477] , write its reported Wnt Reporter EC50.
Data returned: ≤ 7.5 µM

The reported measurements were obtained from patent US20260098059A1.
